Target: enzyme FAAH (Fatty Acid Amide Hydrolase) (Mus musculus, UniProt O08914)
Construct: The membrane homogenates are prepared extemporaneously by homogenizing the tissues; from tissue; host or cells: mouse brain minus cerebellum, membrane/brain homogenate
Sequence (O08914 whole entry): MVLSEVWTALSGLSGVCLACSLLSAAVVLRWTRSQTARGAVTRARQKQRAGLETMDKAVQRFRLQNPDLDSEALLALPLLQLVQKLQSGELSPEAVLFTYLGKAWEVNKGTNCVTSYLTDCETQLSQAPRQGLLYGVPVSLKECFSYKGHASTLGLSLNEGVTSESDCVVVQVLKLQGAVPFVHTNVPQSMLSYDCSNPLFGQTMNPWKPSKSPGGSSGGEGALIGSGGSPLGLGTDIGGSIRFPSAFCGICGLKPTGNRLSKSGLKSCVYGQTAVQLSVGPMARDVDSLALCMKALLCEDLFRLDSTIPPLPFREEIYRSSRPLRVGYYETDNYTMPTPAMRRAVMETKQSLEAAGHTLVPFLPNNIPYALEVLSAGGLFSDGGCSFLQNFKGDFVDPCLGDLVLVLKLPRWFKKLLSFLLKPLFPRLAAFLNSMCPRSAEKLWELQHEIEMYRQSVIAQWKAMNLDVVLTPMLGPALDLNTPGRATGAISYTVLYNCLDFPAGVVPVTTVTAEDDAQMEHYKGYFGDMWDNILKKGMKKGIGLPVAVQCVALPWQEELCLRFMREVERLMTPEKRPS
Experiment: FAAH fluorescent enzymatic test, hydrolysis of AAMC (protocol 2)
Type: biochemical
Conditions: mouse brain homogenate, AAMC 10 μM, 20 min preincubation at 25° C., 40 min at 37° C., read-out: IC50 (concentration that inhibits 50% of the control enzymatic activity of FAAH)
Listed next: entries and their corresponding IC50.
Answer format: numeric, nM implied, no suffix.

In plain terms, CN(C)C(=O)c1cc(COC(=O)N2C[C@H]3C[C@H](Oc4ccc(F)cc4)C[C@H]3C2)on1 [Compound 44] has a documented IC50 of 7.4

Looking up CNC(=O)c1cc(COC(=O)N2C[C@H]3C[C@H](Oc4ccc(-c5ccc(F)cc5)cc4)C[C@H]3C2)on1 [Compound 45] , I see its IC50 listed as 0.47

----------
Target: enzyme FAAH (Fatty Acid Amide Hydrolase) (Mus musculus, UniProt O08914)
Construct: The membrane homogenates are prepared extemporaneously by homogenizing the tissues; from tissue; host or cells: mouse brain minus cerebellum, membrane/brain homogenate
Assay: FAAH radioenzymatic test, hydrolysis of anandamide [ethanolamine 1-3H] (protocol 1)
Type: biochemical
Conditions: mouse brain membrane homogenate, anandamide 10 μM, 20 min preincubation at 25° C., read-out: IC50 (concentration that inhibits 50% of the control enzymatic activity of FAAH)
Method: The compounds of the invention underwent pharmacological tests to determine their inhibitory effect on the enzyme FAAH (Fatty Acid Amide Hydrolase). Thus, mouse brains (minus the cerebellum) are removed and stored at −80° C. […] The mixture is stirred for 10 minutes and the aqueous phase containing the ethanolamine [1-^3H] is then recovered by filtration under vacuum and counted by liquid scintillation.
Mark y only when IC50 stays strictly below 20 nM. Values equal to the cut-off are n.

Compound: O=C(OCc1csnn1)N1C[C@H]2C[C@H](Oc3ccc(Cl)cc3)C[C@H]2C1
Class assignment: n
//
Compound: NC(=O)c1cc(COC(=O)N2C[C@H]3C[C@H](Oc4ccc(Cl)c(F)c4)C[C@H]3C2)on1
Class assignment: y
//
Compound: CNC(=O)c1cc(COC(=O)N2C[C@H]3C[C@H](Oc4ccc(Cl)c5ccccc45)C[C@H]3C2)on1
Class assignment: y
//
Compound: CCOc1ccc2ccc(OC3CC4CN(C(=O)OCc5nc(C(=O)NC)cs5)CC4C3)cc2c1 (stereo not drawn)
Class assignment: n

I wonder whether NC(=O)c1cc(COC(=O)N2C[C@H]3C[C@H](Oc4ccc(Cl)cc4)C[C@H]3C2)on1 has IC50 below 20 nM. Can you tell?
y

Decide: IC50 of CCOc1ccc2ccc(O[C@H]3C[C@@H]4CN(C(=O)OCc5nccs5)C[C@@H]4C3)cc2c1 strictly below 20 nM?
y

All values here come from patent US8697883B2.
